Measured Anti-PSMA Fab signal in the presence of PSMA, listed per entry for reference.
target: T1, Anti-PSMA Fab (SEQ ID NOs: 19, 20); experiment: phage binding ELISA; PSMA Fab on plate pre-incubated with PSMA antigen as competitor, anti-M13 HRP detection;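 also: crude clonal phage supernatants added without washing to wells preincubated with PSMA in blocking buffer, compared with wells receiving blocking buffer only, then bound phage detected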
T1 construct: In the phage ELISA the PSMA Fab was biotinylated and captured on neutravidin coated plates; also called 006 PSMA Fab
Where no end group is shown, it is not given here.
Returns: the value as a bare number; no unit string appended.

// known answers, use as guide
BINDER	MEAS VALUE
ESKWCTPPWMCMTD (Tested as clonal phage supernatant; not shown: pIII filament protein of the bacteriophage to which the peptide is fused for display) [Phage-2085 (peptide-180 library clone, SEQ ID NO: 2401)]	0.0945
ADKWCTPTWMCQWL (Tested as clonal phage supernatant; not shown: pIII filament protein of the bacteriophage to which the peptide is fused for display) [Phage-2075 (peptide-180 library clone, SEQ ID NO: 2391)]	0.0745
AEKLCIPPWMCMLS (Tested as clonal phage supernatant; not shown: pIII filament protein of the bacteriophage to which the peptide is fused for display) [Phage-2077 (peptide-180 library clone, SEQ ID NO: 2393)]	0.101
VAKMCIPSWMCAEQ (cysteine pairing not given here; also: fused to phage pIII, pIII sequence and linker not given here, Tested as clonal phage supernatant; not shown: pIII filament protein of the bacteriophage to which the peptide is fused for display) [Phage-2073 (peptide-180 library clone, SEQ ID NO: 2389)]	0.0548

The measured Anti-PSMA Fab signal in the presence of PSMA associated with QVNWCIPPWMCAGL (cysteine pairing not given here; also: fused to phage pIII, pIII sequence and linker not given here, Tested as clonal phage supernatant; not shown: pIII filament protein of the bacteriophage to which the peptide is fused for display) [Phage-2081 (peptide-180 library clone, SEQ ID NO: 2397)] reads 0.0898

The measured Anti-PSMA Fab signal in the presence of PSMA associated with IEKWCIPEWMCEYT (Tested as clonal phage supernatant; not shown: pIII filament protein of the bacteriophage to which the peptide is fused for display) [Phage-2078 (peptide-180 library clone, SEQ ID NO: 2394)] reads 0.0826

The measured Anti-PSMA Fab signal in the presence of PSMA associated with WDNWCTPLWMCQGF (Tested as clonal phage supernatant; not shown: pIII filament protein of the bacteriophage to which the peptide is fused for display) [Phage-2080 (peptide-180 library clone, SEQ ID NO: 2396)] reads 0.0794

The measured Anti-PSMA Fab signal in the presence of PSMA associated with ADKWCIPEWMCEMN (Tested as clonal phage supernatant; not shown: pIII filament protein of the bacteriophage to which the peptide is fused for display) [Phage-2076 (peptide-180 library clone, SEQ ID NO: 2392)] reads 0.0844
